test system: HEK-293T; assay: Multiplex assay against HEK293T; assay type: toxicity, cell-based; settings: human, 24 h, 10 µM, compound concentration 10 uM, replicate 2
property.name: Population Mitotic Cells (%)
Be sure to follow the number with its unit.

stdin: Reported Population Mitotic Cells (%), molecule O=C(NCCNCC(O)COc1ccc(O)cc1)N1CCOCC1.O=C(NCCNCC(O)COc1ccc(O)cc1)N1CCOCC1.O=C(O)/C=C/C(=O)O (stereo not given) [XAMOTEROL FUMARATE] : ____
stdout: 66%

stdin: Recorded Population Mitotic Cells (%) for COc1ccc2c(c1OCc1ccccc1)C[C@@H](C(=O)O)N(C(=O)C(c1ccccc1)c1ccccc1)C2 [OLODANRIGAN] , please?
stdout: 56%

----------
Recorded Population Membrane Permeable-Phenotype (%) by entry
tested on: Fibroblast; experiment: Multiplex assay against human fibroblast; type: toxicity, cell-based; settings: 48 h, 10 µM, compound concentration 10 uM, replicate 2
Non-standard residues stand in square brackets, D forms with d. Residues, ends and D or L forms follow the SMILES beside them.
Reply numerically in %, unit not repeated.

stdin: Notebook: pull reported Population Membrane Permeable-Phenotype (%) for Fibroblast, entry Cc1ccc(OCC(O)C(C)NC(C)C)c2c1CCC2.Cl (configuration not stated)
stdout: 5

stdin: Can you look up Population Membrane Permeable-Phenotype (%) on Fibroblast for N[C@](CC1c2ccccc2Oc2ccccc21)(C(=O)O)[C@H]1C[C@@H]1C(=O)O ?
stdout: 2

stdin: Return Population Membrane Permeable-Phenotype (%) measured with Fibroblast given this compound: CC(C)C[C@H](CO)Nc1nc(S[C@@H](C)c2ccccc2)nc2nc(N)sc12
stdout: 12

stdin: Under Fibroblast: Population Membrane Permeable-Phenotype (%) value of CCC(=O)OCC(=O)[C@@]1(OC(=O)CC)[C@@H](C)C[C@H]2[C@@H]3CCC4=CC(=O)C=C[C@]4(C)[C@@]3(Cl)[C@@H](O)C[C@@]21C [BECLOMETHASONE DIPROPIONATE] ?
stdout: 18

stdin: Missing value: Population Membrane Permeable-Phenotype (%), Fibroblast, entry CN1CCC(C(=O)c2cccc(NC(=O)c3c(F)cc(F)cc3F)n2)CC1 . Fill in?
stdout: 3

stdin: Lab request: please report Population Membrane Permeable-Phenotype (%) under test system Fibroblast for CC(C)C[C@@H]1NC(=O)[C@@H](C(C)C)NC(=O)[C@@H]2CCCN2C(=O)[C@@H](CC(=O)O)NC(=O)[C@@H](Cc2c[nH]c3ccccc23)NC1=O [BQ-123] (cyclo(L[dW][dD]P[dV]))
stdout: 9

Okay, next one:
stdin: Reported Population Membrane Permeable-Phenotype (%) for Fibroblast, given Cc1sc2c(c1C)C(c1ccc(Cl)cc1)=N[C@H](CC(=O)OC(C)(C)C)c1nnc(C)n1-2 ?
stdout: 4

----------
test system: HEK-293T; test: Multiplex assay against HEK293T; format: toxicity, cell-based; conditions: human, 24 h, 10 µM, compound concentration 10 uM, replicate 1
property.name: Population Tubulin-Different-Phenotype (%)
Could you give me the number in %? Just the number is fine.

stdin: Field request: Population Tubulin-Different-Phenotype (%) | item: Cc1sc2c(c1C)C(c1ccc(Cl)cc1)=N[C@H](CC(=O)OC(C)(C)C)c1nnc(C)n1-2
stdout: 46

----------
test system: Fibroblast; test: Multiplex assay against human fibroblast; format: toxicity, cell-based; details: 48 h, 1 µM, compound concentration 1 uM, replicate 1
property.name: Population Normal (%)
Write the answer as a number in %, unit excluded.

Here are 4 compounds together with their reported answers.
stdin: Look up Population Normal (%) for this compound: CCCCCCNC(=O)Nc1ccc(S(=O)(=O)Nc2ccc(CCNC[C@H](O)COc3ccc(O)cc3)cc2)cc1 [L-755507]
stdout: 96

stdin: Tell me the measured Population Normal (%) of CC(C)(C)c1ccc(CSc2cnn(C(C)(C)C)c(=O)c2Cl)cc1 [PYRIDABEN] , please.
stdout: 98

stdin: Consider the compound shown here: COc1cc2nc(N3CCN(C(=O)COc4c(OC)cccc4C(C)C)CC3)nc(N)c2cc1OC.Cl.Cl What is its recorded Population Normal (%)?
stdout: 96

stdin: For the compound Cc1sc2c(c1C)C(c1ccc(Cl)cc1)=N[C@H](CC(=O)OC(C)(C)C)c1nnc(C)n1-2 , what Population Normal (%) is on record?
stdout: 94

Could you now look at the following compound, please?
stdin: Population Normal (%) lookup needed for S=C(NCCCc1c[nH]cn1)NCCCN(Cc1ccc(Cl)c(Cl)c1)c1ccc(Br)cn1 , thanks.
stdout: 96

----------
system: HEK-293T; assay: Multiplex assay against HEK293T; format: toxicity, cell-based; conditions: human, 24 h, 10 µM, compound concentration 10 uM, replicate 2
Non-standard residues stand in square brackets, D forms with d. Residues, ends and D or L forms follow the SMILES beside them.
property.name: Population Pyknosed Nuclei (%)
Return type: number; implicit unit %.

Some compounds with recorded Population Pyknosed Nuclei (%):
stdin: Recorded Population Pyknosed Nuclei (%) for CC(C)C[C@@H]1NC(=O)[C@@H](C(C)C)NC(=O)[C@@H]2CCCN2C(=O)[C@@H](CC(=O)O)NC(=O)[C@@H](Cc2c[nH]c3ccccc23)NC1=O [BQ-123] (cyclo(L[dW][dD]P[dV])) , please?
stdout: 12

stdin: # Population Pyknosed Nuclei (%) lookup, item COc1cc(Nc2ncc3c(n2)-c2ccc(Cl)cc2C(c2c(F)cccc2OC)=NC3)ccc1C(=O)O [ALISERTIB]
stdout: 31

stdin: Look at this compound and give its reported Population Pyknosed Nuclei (%). CC(C)C[C@H](CO)Nc1nc(S[C@@H](C)c2ccccc2)nc2nc(N)sc12 [AZD-8797]
stdout: 12

stdin: Consider the compound shown here: CN1CCC(C(=O)c2cccc(NC(=O)c3c(F)cc(F)cc3F)n2)CC1 What is its recorded Population Pyknosed Nuclei (%)?
stdout: 9

stdin: Item under review: Cc1nn(C)c2nc(NNC(=O)Nc3cc(Cl)nc(Cl)c3)cc(C(C)C)c12 . Reported Population Pyknosed Nuclei (%)?
stdout: 16

stdin: So what does the record say about Population Pyknosed Nuclei (%) for COCCn1c(C)c(C)s/c1=N\C(=O)C1C(C)(C)C1(C)C ?
stdout: 13

Others:
stdin: For COc1c(Nc2ccc(S(C)(=O)=O)nc2C)ncnc1OC1CCN(C(=O)OC(C)C)CC1 [ADP-597] , what is its reported Population Pyknosed Nuclei (%)?
stdout: 17

stdin: # get_value(readout='Population Pyknosed Nuclei (%)', item= Cc1c(Cc2ccc3ccccc3n2)c2cc(F)ccc2n1CC(=O)O [TIMAPIPRANT] )
stdout: 10

stdin: Return reported Population Pyknosed Nuclei (%); argument: COCCCN1CCC(NC(=O)c2cc(Cl)c(N)c3c2OCC3)CC1 [PRUCALOPRIDE]
stdout: 12

stdin: Can you look up the measured Population Pyknosed Nuclei (%) of Cl.Cl.OCCOCCN1CCN(C(c2ccccc2)c2ccc(Cl)cc2)CC1 (stereo unspecified) [HYDROXYZINE HYDROCHLORIDE] for me?
stdout: 19

stdin: Field request: Population Pyknosed Nuclei (%) | item: CCC(=O)OCC(=O)[C@@]1(OC(=O)CC)[C@@H](C)C[C@H]2[C@@H]3CCC4=CC(=O)C=C[C@]4(C)[C@@]3(Cl)[C@@H](O)C[C@@]21C [BECLOMETHASONE DIPROPIONATE]
stdout: 23

stdin: Fill blank: measured Population Pyknosed Nuclei (%) of the compound COc1cc2nc(N3CCN(C(=O)c4ccco4)CC3)nc(N)c2cc1OC.Cl [PRAZOSIN HYDROCHLORIDE] is ____.
stdout: 10

stdin: So what's the measured Population Pyknosed Nuclei (%) for this one? Cn1cc(C(=O)OCC2CCN(CCNS(C)(=O)=O)CC2)c2ccccc21
stdout: 9

stdin: So what's the measured Population Pyknosed Nuclei (%) for this one? CN(C)C/C=C/C(=O)Nc1ccc(C(=O)N2CCCC(Nc3ncc(Cl)c(-c4c[nH]c5ccccc45)n3)C2)cc1 (stereo unspecified)
stdout: 20

stdin: Value lookup for Population Pyknosed Nuclei (%); key = O=c1ccc2ccc(OCCCCN3CCN(c4cccc5sccc45)CC3)cc2[nH]1 [BREXPIPRAZOLE]
stdout: 30

stdin: What Population Pyknosed Nuclei (%) value was documented for this compound, Cc1sc2c(c1C)C(c1ccc(Cl)cc1)=N[C@H](CC(=O)OC(C)(C)C)c1nnc(C)n1-2 ?
stdout: 19

----------
system: HEK-293T; experiment: Multiplex assay against HEK293T; assay type: toxicity, cell-based; settings: human, 12 h, 10 µM, compound concentration 10 uM, replicate 1
Non-standard residues stand in square brackets, D forms with d. Residues, ends and D or L forms follow the SMILES beside them.
property.name: Population Mitotic Cells (%)
Form entry: value (%) — number only.

Below are worked cases with known answers.
stdin: Any idea what Population Mitotic Cells (%) was measured for CN1C[C@H](C(=O)N[C@]2(C)O[C@@]3(O)[C@@H]4CCCN4C(=O)[C@H](Cc4ccccc4)N3C2=O)C[C@@H]2c3cccc4[nH]cc(c34)C[C@H]21.CS(=O)(=O)O [DIHYDROERGOTAMINE MESYLATE] ?
stdout: 68

stdin: Which Population Mitotic Cells (%) is listed for COc1cc(C(=O)N2CC[C@@H](O)[C@@H](N)C2)cc2nc(-c3cc4ccccc4n3CC3CC3)n(C)c12.Cl ?
stdout: 28

stdin: State the recorded Population Mitotic Cells (%) for this entry: Cc1sc2c(c1C)C(c1ccc(Cl)cc1)=N[C@H](CC(=O)OC(C)(C)C)c1nnc(C)n1-2
stdout: 58

Further cases:
stdin: Which Population Mitotic Cells (%) reading was recorded for the molecule S=C(NCCCc1c[nH]cn1)NCCCN(Cc1ccc(Cl)c(Cl)c1)c1ccc(Br)cn1 ?
stdout: 9

stdin: Please look up its Population Mitotic Cells (%): Cc1nn(C)c2nc(NNC(=O)Nc3cc(Cl)nc(Cl)c3)cc(C(C)C)c12
stdout: 44

stdin: Which Population Mitotic Cells (%) value is on record for CC(F)(F)CN1CCOc2c(nn(-c3ccccc3Cl)c2-c2ccc(Cl)cc2)C1=O ?
stdout: 42

stdin: Give its Population Mitotic Cells (%) value. Item: CC(C)C[C@@H]1NC(=O)[C@@H](C(C)C)NC(=O)[C@@H]2CCCN2C(=O)[C@@H](CC(=O)O)NC(=O)[C@@H](Cc2c[nH]c3ccccc23)NC1=O [BQ-123] (cyclo(L[dW][dD]P[dV]))
stdout: 69
